Experiment: Ratio of drug uptake in Wistar-Hannover rat liver to plasma at 30 mg/kg, po after 6 hrs by LC/MS-MS analysis
Assay type: ADME, organism-based
Conditions: liver and plasma
Observable: Kp at 6 h

>  <Compound String>
COc1cc(C(=O)N2CCC3(CC2)CC(=O)c2nn(C(C)(C)C)cc2O3)cc(-c2ccc(C(=O)O)cc2)n1

>  <Observable>
Kp at 6 h

>  <Experimental Value>
914

$$$$

----------
Assay: Ratio of drug uptake in Wistar-Hannover rat liver to plasma at 10 mg/kg, po after 6 hrs by LC/MS-MS analysis
Assay type: ADME, organism-based
Conditions: liver and plasma
Observable: Kp at 6 h

>  <Compound String>
COc1cc(C(=O)N2CCC3(CC2)CC(=O)c2c(cnn2C(C)C)C3)cc(-c2ccc(C(=O)O)cc2)n1

>  <Experimental Value>
78

$$$$

----------
Test: Thermodynamic solubility of the compound at pH 7.4 after 24 hrs
Assay type: physicochemical
Conditions: buffer, read-out: Therm_solubility

>  <Compound String>
COc1cc(C(=O)N2CCC3(CC2)CC(=O)c2c(cnn2C(C)C)C3)cc(-c2ccc(C(=O)O)cc2)n1

>  <Unit Spec>
µM

>  <solubility thermodynamic at 24 h>
234

$$$$
>  <Compound String>
CC(C)n1ncc2c1C(=O)CC1(CCN(C(=O)c3cc(-c4ccc(C(=O)O)cc4)nc(N(C)C)c3)CC1)C2

>  <Unit Spec>
µM

>  <solubility thermodynamic at 24 h>
13

$$$$

----------
Test: Apparent volume of distribution at steady state in Wistar-Hannover rat plasma at 1 mg/kg, iv and measured up to 24 hrs by LC/MS-MS analysis
Assay type: ADME, organism-based
Details: read-out: Vdss(app)
// reported Vd per item

>  <Compound String>
COc1cc(C(=O)N2CCC3(CC2)CC(=O)c2nn(C(C)(C)C)cc2O3)cc(-c2ccc(C(=O)O)cc2)n1

>  <Vd / L/kg>
4.1

$$$$
>  <Compound String>
COc1cc(C(=O)N2CCC3(CC2)CC(=O)c2c(cnn2C(C)C)C3)cc(-c2ccc(C(=O)O)cc2)n1

>  <Vd / L/kg>
7.2

$$$$
>  <Compound String>
CC(C)n1ncc2c1C(=O)CC1(CCN(C(=O)c3cc(-c4ccc(C(=O)O)cc4)nc(N(C)C)c3)CC1)C2

>  <Vd / L/kg>
5.2

$$$$

----------
Target: Acetyl-CoA carboxylase 1 (Homo sapiens, UniProt Q13085)
Assay: Inhibition of recombinant human ACC1 using acetyl coA as substrate incubated for 1 hr by transcreener fluorescence polarization assay

>  <Compound String>
CC(C)n1ncc2c1C(=O)CC1(CCN(C(=O)c3cc(-c4ccc(C(=O)O)cc4)nc(N(C)C)c3)CC1)C2

>  <IC50 [nM]>
7.7

$$$$
>  <Compound String>
Cc1nc2cc(C(=O)N3CCC4(CC3)CC(=O)c3c(c(C(=O)O)nn3C(C)C)C4)ccc2[nH]1

>  <IC50 [nM]>
12000

$$$$
>  <Compound String>
CC(C)(C)n1cc2c(n1)C(=O)CC1(CCN(C(=O)c3ccnc(-c4ccc(C(=O)O)cc4)c3)CC1)O2

>  <IC50 [nM]>
1100

$$$$
>  <Compound String>
CC(C)(C)n1cc2c(n1)C(=O)CC1(CCN(C(=O)c3cccc(-c4ccc(C(=O)O)cc4)c3)CC1)O2

>  <IC50 [nM]>
440

$$$$

----------
Target: OATP1B3 (Homo sapiens)
Sequence (Q9NPD5 whole entry): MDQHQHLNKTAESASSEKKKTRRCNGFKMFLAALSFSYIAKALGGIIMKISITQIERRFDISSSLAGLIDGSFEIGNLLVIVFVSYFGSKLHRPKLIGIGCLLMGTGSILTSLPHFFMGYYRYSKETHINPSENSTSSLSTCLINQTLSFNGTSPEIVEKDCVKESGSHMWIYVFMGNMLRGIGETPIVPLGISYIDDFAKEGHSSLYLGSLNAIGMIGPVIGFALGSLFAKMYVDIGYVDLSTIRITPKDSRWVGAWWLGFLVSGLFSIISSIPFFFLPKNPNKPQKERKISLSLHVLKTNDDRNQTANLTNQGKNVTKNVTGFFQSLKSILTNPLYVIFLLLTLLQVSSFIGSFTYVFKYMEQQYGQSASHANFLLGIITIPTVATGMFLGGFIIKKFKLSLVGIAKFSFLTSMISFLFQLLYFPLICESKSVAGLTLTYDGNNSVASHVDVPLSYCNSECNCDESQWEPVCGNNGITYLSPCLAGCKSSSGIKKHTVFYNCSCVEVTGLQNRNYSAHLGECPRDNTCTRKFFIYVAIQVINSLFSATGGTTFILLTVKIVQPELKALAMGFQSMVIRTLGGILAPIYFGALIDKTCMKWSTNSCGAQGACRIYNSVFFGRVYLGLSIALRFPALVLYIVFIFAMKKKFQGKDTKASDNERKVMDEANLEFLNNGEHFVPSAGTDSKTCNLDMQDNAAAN
Experiment: Substrate activity at human OATP1B3 stably expressed in HEK293 cells assessed as ratio of total to passive cellular uptake at 1 uM incubated for 5 mins by LC/MS-MS analysis
Format: ADME, cell-based
Conditions: HEK293 cells stably expressing human OATP1B3
Observable: uptake ratio at 5 min, 1 µM

>  <Compound String>
COc1cc(C(=O)N2CCC3(CC2)CC(=O)c2nn(C(C)(C)C)cc2O3)cc(-c2ccc(C(=O)O)cc2)n1

>  <Observable>
uptake ratio at 5 min, 1 µM

>  <Experimental Value>
3.3

$$$$

----------
Experiment: Drug uptake in Wistar-Hannover rat assessed as plasma concentration at 30 mg/kg, po after 6 hrs by LC/MS-MS analysis
Type: ADME, organism-based

>  <Compound String>
COc1cc(C(=O)N2CCC3(CC2)CC(=O)c2nn(C(C)(C)C)cc2O3)cc(-c2ccc(C(=O)O)cc2)n1

>  <concentration at 6 h, ng/mL>
41.7

$$$$

----------
Assay: Aqueous solubility of compound at pH 1.2 using tris(hydroxymethyl)aminomethane (tris) salt form of compound
Assay type: physicochemical
Settings: buffer
Observable: solubility (µM)

>  <Compound>
COc1cc(C(=O)N2CCC3(CC2)CC(=O)c2c(cnn2C(C)C)C3)cc(-c2ccc(C(=O)O)cc2)n1.NC(CO)(CO)CO [CLESACOSTAT TROMETHAMINE]

>  <Unit Spec>
µM

>  <Experimental Value>
1320

$$$$

----------
Assay: Tmax in Wistar-Hannover rat plasma at 5 mg/kg, po tris(hydroxymethyl)aminomethane (tris) salt form of compound and measured up to 24 hrs by LC/MS-MS analysis
Format: ADME, organism-based
Observable: Tmax (min)

>  <Compound String>
COc1cc(C(=O)N2CCC3(CC2)CC(=O)c2c(cnn2C(C)C)C3)cc(-c2ccc(C(=O)O)cc2)n1.NC(CO)(CO)CO

>  <Observable>
Tmax

>  <Unit Spec>
min

>  <Experimental Value>
32.4

$$$$
